# credit: paper PMC11547505

Biological target: SARS-CoV-2 2′-O-MTase (Nsp10–16) (Severe acute respiratory syndrome coronavirus 2, UniProt P0DTD1)
value-kind: IC50 (µM)
Quick reminder: number only, in µM, skip the unit.

Worked cases, IC50 given:
Query: Look up IC50 for this compound: Cc1ccc2c(c1)-c1cc(C(=O)c3ccc(O)cc3O)c(O)cc1OC2(C)C [CPM-2]
Result: 6.7

Query: GET /values?readout=IC50&item= Cc1ccc2c(c1)-c1c(ccc(C(=O)c3ccc(O)cc3O)c1O)OC2(C)C [CPM-1]
Result: 1.5

***
Query: Would you mind telling me what IC50 value was observed for CC1=CC[C@@H]2[C@@H](C1)c1c(ccc(C(=O)c3ccc(O)cc3O)c1O)OC2(C)C [TPM-1] ?
Result: 2.8

Query: // returns reported IC50 for input CC1=CC[C@@H]2[C@@H](C1)c1cc(C(=O)c3ccc(O)cc3O)c(O)cc1OC2(C)C [TPM-2]
Result: 6.4

====

Test: in vitro
Details: African green monkey, Vero cells (kidney)
value-kind: CC50 (µM)
Answer with a number only, understood to be in µM.

Query: Would you mind telling me what CC50 value was observed for CC1=CC[C@@H]2[C@@H](C1)c1cc(C(=O)c3ccc(O)cc3O)c(O)cc1OC2(C)C ?
Result: 45.2

Could you now consider this next molecule?
Query: Could you tell me which CC50 is on file for CC1=CC[C@@H]2[C@@H](C1)c1c(ccc(C(=O)c3ccc(O)cc3O)c1O)OC2(C)C ?
Result: 13.2

====

System: SARS-CoV-2
Assay: Anti-SARS-CoV-2 virus yield reduction assay (qRT-PCR) on Vero cells
Details: 10 µM, 0.1 MOI, virus yield reduction qRT-PCR
value-kind: Anti-SARS-CoV-2 Activity, % Inhibition at 10 µM (%)
Express the result in % but write the number alone.

Some compounds with recorded Anti-SARS-CoV-2 Activity, % Inhibition at 10 µM:
Query: Provide the documented Anti-SARS-CoV-2 Activity, % Inhibition at 10 µM with SARS-CoV-2 as the system for CC1=CC[C@@H]2[C@@H](C1)c1cc(C(=O)c3ccc(O)cc3O)c(O)cc1OC2(C)C [TPM-2]
Result: 98.9

Query: What Anti-SARS-CoV-2 Activity, % Inhibition at 10 µM appears in the records for this compound with SARS-CoV-2? Cc1ccc2c(c1)-c1c(ccc(C(=O)c3ccc(O)cc3O)c1O)OC2(C)C [CPM-1]
Result: 98.9

Query: Kindly state the measured Anti-SARS-CoV-2 Activity, % Inhibition at 10 µM obtained for CCC(CC)COC(=O)[C@H](C)N[P@](=O)(OC[C@H]1O[C@@](C#N)(c2ccc3c(N)ncnn23)[C@H](O)[C@@H]1O)Oc1ccccc1 [Remdesivir, reference compound] with SARS-CoV-2.
Result: 99.9

Query: Look up Anti-SARS-CoV-2 Activity, % Inhibition at 10 µM with SARS-CoV-2 for this compound: Cc1ccc2c(c1)-c1cc(C(=O)c3ccc(O)cc3O)c(O)cc1OC2(C)C [CPM-2]
Result: 98.1

Now take the following compound into account.
Query: # query: Anti-SARS-CoV-2 Activity, % Inhibition at 10 µM | item CC1=CC[C@@H]2[C@@H](C1)c1c(ccc(C(=O)c3ccc(O)cc3O)c1O)OC2(C)C [TPM-1] | system: SARS-CoV-2
Result: 99.3
